test: Human HepG2 cell viability assay in 384 well format; type: toxicity, cell-based; design: dose 125 nL, time 70.5 hour; concentration not given beside the values; settings: HepG2 cells, read-out: Inhibition
Property: cytotoxicity at 70.5 h (%)

[
  {
    "Molecule": "COCCN1CC(C(=O)N(CCN(C)C)Cc2ccc(C)s2)CC1=O (centres undefined)",
    "Test value": -4.05
  },
  {
    "Molecule": "O=C(NCCCOCC1CC1)Nc1ccc(-n2cncn2)c(F)c1",
    "Test value": -13.3
  },
  {
    "Molecule": "CC(=O)Nc1nc(C2CCN(C(=O)Cc3ccccc3)CC2)cs1",
    "Test value": -5.09
  },
  {
    "Molecule": "CCN1C[C@@H]2CN(C(=O)c3cccn3C)C[C@@H]2C1=O",
    "Test value": 8.28
  },
  {
    "Molecule": "CC[C@H](C)Cn1nc(C2CCNCC2)n(Cc2ccccc2)c1=O",
    "Test value": -2.63
  },
  {
    "Molecule": "CC(C)(C)c1ccn(C2(C(=O)O)CCN(c3ccnc(N)n3)CC2)n1",
    "Test value": -3.43
  },
  {
    "Molecule": "C[C@H]1C[C@H]2CN(C(=O)c3ccncn3)CC[C@@H]2O1",
    "Test value": -19.6
  },
  {
    "Molecule": "O=C(N1CCc2ccccc2CC1)C1(O)Cc2ccccc2C1",
    "Test value": -2.64
  },
  {
    "Molecule": "COc1ccc(OC)c(C(O)CNC(=O)Nc2cccnc2OC)c1 (centres undefined)",
    "Test value": -6.93
  },
  {
    "Molecule": "O=C(NC[C@H]1C[C@@H]2CCN1C[C@@H]2CN1CCOCC1)Nc1ccsc1",
    "Test value": -12.4
  },
  {
    "Molecule": "Cc1nn(C)c2nc(NCCN3CCCC(C(N)=O)C3)sc12 (centres undefined)",
    "Test value": -13.4
  },
  {
    "Molecule": "Cc1cnc(CN(Cc2ccccc2)CC(O)c2cccs2)cn1 (centres undefined)",
    "Test value": 7.82
  },
  {
    "Molecule": "CC(C)Oc1ncccc1CNC(=O)c1ccccn1",
    "Test value": -2.17
  },
  {
    "Molecule": "CCn1nc(C)c(CNC(=O)NCC(C)(O)c2ccc(C)o2)c1C (centres undefined)",
    "Test value": -13.6
  }
]

---

assay: Human HepG2 cell viability assay in 384 well format; assay type: toxicity, cell-based; design: dose 125 nL, time 70.5 hour; concentration not given beside the values; conditions: HepG2 cells, read-out: Inhibition

[
  {
    "Molecule": "Cc1ncsc1C(=O)OCCN1CCCCCC1=O",
    "Unit spec": "%",
    "cytotoxicity at 70.5 h": -8.25
  },
  {
    "Molecule": "COCCC(=O)N1CCC(c2noc3nc(C)cc(C(F)(F)F)c23)CC1",
    "Unit spec": "%",
    "cytotoxicity at 70.5 h": -4.96
  },
  {
    "Molecule": "Cc1c(C(=O)NC2CCCOC2)nnn1-c1ccc(Cl)cc1F (stereo not given)",
    "Unit spec": "%",
    "cytotoxicity at 70.5 h": -0.806
  },
  {
    "Molecule": "O=c1cc(-c2cccnc2)nc(-c2ccc(CN3CC[C@@H](O)C3)cc2)[nH]1",
    "Unit spec": "%",
    "cytotoxicity at 70.5 h": 12.1
  },
  {
    "Molecule": "NC(=O)Nc1cccc(C(=O)N(Cc2ccc(F)cc2)C2CC2)c1",
    "Unit spec": "%",
    "cytotoxicity at 70.5 h": -14.8
  }
]

---

test: Human HepG2 cell viability assay in 384 well format; type: toxicity, cell-based; parameters: dose 125 nL, time 70.5 hour; concentration not given beside the values; settings: HepG2 cells, read-out: Inhibition
Listed below: cytotoxicity at 70.5 h values for each entry.

[
  {
    "Compound": "Cc1cccc(CS(=O)(=O)NCc2nn(C)c3c2CCCC3)c1",
    "cytotoxicity at 70.5 h": "-2.52%"
  },
  {
    "Compound": "CCC(=O)N1CCC(NCc2cc(C(F)(F)F)ccc2Cl)C1 (configuration not stated)",
    "cytotoxicity at 70.5 h": "-4.4%"
  },
  {
    "Compound": "Cn1cc(CCCNS(=O)(=O)N2CCCC2c2ccco2)cn1 (configuration not stated)",
    "cytotoxicity at 70.5 h": "-2.37%"
  },
  {
    "Compound": "NCc1ccc(Oc2cccc(Cl)c2Cl)nc1",
    "cytotoxicity at 70.5 h": "6.23%"
  },
  {
    "Compound": "O=C(Nc1cccnc1)[C@@H]1COC[C@H]2CN(C3CCCC3)C[C@H]21",
    "cytotoxicity at 70.5 h": "-124%"
  },
  {
    "Compound": "CC(CNC(=O)c1cc(N2CCNC2=O)ccc1F)c1ccccc1 (configuration not stated)",
    "cytotoxicity at 70.5 h": "-6.76%"
  },
  {
    "Compound": "COCCC(=O)N1CCC(NC(=O)c2cscc2C)CC1",
    "cytotoxicity at 70.5 h": "6.09%"
  },
  {
    "Compound": "CN(c1ncc(S(N)(=O)=O)s1)C1CCC1",
    "cytotoxicity at 70.5 h": "-9.06%"
  },
  {
    "Compound": "CC1CN(C(=O)Nc2cc(C(F)(F)F)c[nH]c2=O)CCO1 (configuration not stated)",
    "cytotoxicity at 70.5 h": "-8.88%"
  },
  {
    "Compound": "CCC(NCc1nccn1C)c1nc(C(F)(F)F)cs1 (configuration not stated)",
    "cytotoxicity at 70.5 h": "-0.765%"
  },
  {
    "Compound": "CN(Cc1cccc(C(N)=O)c1)c1ncc(C(N)=O)cc1Cl",
    "cytotoxicity at 70.5 h": "-9.7%"
  },
  {
    "Compound": "O=C(NC1CC1)C1CNCCN1C(=O)CCc1ccc2c(c1)OCO2 (configuration not stated)",
    "cytotoxicity at 70.5 h": "-3.72%"
  },
  {
    "Compound": "COCCC1(CO)CCCN(Cc2cc(C(F)(F)F)ccc2F)C1 (configuration not stated)",
    "cytotoxicity at 70.5 h": "-1.42%"
  },
  {
    "Compound": "Cn1cnnc1C1CCCN(Cc2nc(Cc3ccccc3)no2)C1 (configuration not stated)",
    "cytotoxicity at 70.5 h": "13%"
  },
  {
    "Compound": "Cc1cnn(CC2CCCN2C(=O)CCc2c(C)nn(C)c2C)c1 (configuration not stated)",
    "cytotoxicity at 70.5 h": "-18.5%"
  },
  {
    "Compound": "c1cnc(Nc2ccc(C3CCCCN3Cc3ccncc3)cn2)nc1 (configuration not stated)",
    "cytotoxicity at 70.5 h": "-6.32%"
  },
  {
    "Compound": "O=C(NC[C@]12COC[C@H]1CN(C1CCOCC1)C2)c1ccco1",
    "cytotoxicity at 70.5 h": "-0.469%"
  },
  {
    "Compound": "CCCc1cc(C(=O)NC(C)c2ccccc2)n(C)n1 (configuration not stated)",
    "cytotoxicity at 70.5 h": "-2.33%"
  },
  {
    "Compound": "Oc1nc(N2CCOCC2)nc2c1CCN(Cc1ccccc1)CC2",
    "cytotoxicity at 70.5 h": "-1.05%"
  },
  {
    "Compound": "COc1ccccc1N1CC(NC(=O)Cn2cc(C)nn2)CC1=O (configuration not stated)",
    "cytotoxicity at 70.5 h": "-7.03%"
  },
  {
    "Compound": "CC1CCCCN1C1CN(c2nc(C3CCCC3)nc3c2cnn3C)C1 (configuration not stated)",
    "cytotoxicity at 70.5 h": "-3.67%"
  },
  {
    "Compound": "CCSCCC(=O)Nc1ncn(CC(=O)NCc2ccccc2)n1",
    "cytotoxicity at 70.5 h": "-7.93%"
  },
  {
    "Compound": "COc1nc(C)c(C(=O)N2CCc3[nH]nc(C4CCCC4)c3C2)s1",
    "cytotoxicity at 70.5 h": "-2%"
  },
  {
    "Compound": "Cc1ncnc2c1CCN(C(=O)c1cccn1C)CC2",
    "cytotoxicity at 70.5 h": "-5.38%"
  },
  {
    "Compound": "Cc1cnn(CCC(=O)NS(=O)(=O)N2CCc3ccccc32)c1",
    "cytotoxicity at 70.5 h": "-8.38%"
  },
  {
    "Compound": "Cc1nc(CNC(=O)N(C)Cc2cnn(C)c2)cs1",
    "cytotoxicity at 70.5 h": "9.64%"
  },
  {
    "Compound": "Cc1ccc(C(=O)N2CCC3(CCC(=O)N(CCN(C)C)C3)CC2)nc1",
    "cytotoxicity at 70.5 h": "-3.11%"
  },
  {
    "Compound": "O=C(C[S+]([O-])Cc1ccc(F)cc1)N1CCc2sccc2C1 (configuration not stated)",
    "cytotoxicity at 70.5 h": "-9.59%"
  },
  {
    "Compound": "O=c1[nH]nc(CCCN2CCOCC2)n1Cc1cccc(F)c1",
    "cytotoxicity at 70.5 h": "-2.64%"
  },
  {
    "Compound": "Cc1cc(CN2C[C@@H]3CN(Cc4ccsc4)CCO[C@@H]3C2)no1",
    "cytotoxicity at 70.5 h": "7.7%"
  },
  {
    "Compound": "COc1ccc(-c2nccc(C3CCCN3C)n2)cc1 (configuration not stated)",
    "cytotoxicity at 70.5 h": "-2.22%"
  },
  {
    "Compound": "CCSCC(C)NCc1cc(-c2ccco2)on1 (configuration not stated)",
    "cytotoxicity at 70.5 h": "-10.3%"
  },
  {
    "Compound": "CCc1noc(C2CCCCN2C(=O)c2sccc2C)n1 (configuration not stated)",
    "cytotoxicity at 70.5 h": "12.2%"
  },
  {
    "Compound": "COc1ccc(C(=O)N2CC(=O)N(C3CCC3)CC(O)C2)cc1OC (configuration not stated)",
    "cytotoxicity at 70.5 h": "-5.23%"
  },
  {
    "Compound": "CCc1cc(NCCS(=O)(=O)N(C)C)nc(N2CCOCC2)n1",
    "cytotoxicity at 70.5 h": "-13.2%"
  },
  {
    "Compound": "Cc1cc(C[S+]([O-])CC(=O)Nc2c(C)cccc2C)no1 (configuration not stated)",
    "cytotoxicity at 70.5 h": "-8.27%"
  },
  {
    "Compound": "Cc1cccc(OCCN2CCN(Cc3cnn(CCO)c3)CC2)c1",
    "cytotoxicity at 70.5 h": "-1.35%"
  }
]
